The following compounds have recorded IC50 on SARS-CoV-2 3CL^pro (Severe acute respiratory syndrome coronavirus 2).
One number for each entry, in nM.

COMPOUND	IC50, nM
CC(C)C[C@H](NC(=O)OC1CCC2(C1)CN(C(=O)OC(C)(C)C)C2)C(=O)N[C@@H](C[C@H]1CCNC1=O)C(O)S(=O)(=O)O (stereo partly drawn) [Compound 6c]	1200
CC(C)C[C@H](NC(=O)OC1CC2(C1)CN(C(=O)Cc1ccccc1)C2)C(=O)N[C@@H](C[C@H]1CCNC1=O)C(O)S(=O)(=O)O (stereo partly drawn) [Compound 3c]	260
CC(C)C[C@H](NC(=O)OCC1CN(C(=O)OC(C)(C)C)C1)C(=O)N[C@@H](C[C@H]1CCNC1=O)C(O)S(=O)(=O)[O-].[Na+] (stereo partly drawn) [Compound 14c]	500

Please give IC50, item by item, for the list that follows.
1. [2H]C([2H])(OC(=O)N[C@@H](CC(C)C)C(=O)N[C@@H](C[C@H]1CCNC1=O)C(O)S(=O)(=O)[O-])C1CN(C(=O)OC(C)(C)C)C1.[Na+] (stereo partly drawn) [Compound 18c]
2. CC(C)C[C@H](NC(=O)OCC1CN(S(C)(=O)=O)C1)C(=O)N[C@@H](C[C@H]1CCNC1=O)C(O)S(=O)(=O)O (stereo partly drawn) [Compound 17c]

Resp:
340
4050

Look at each compound and report its IC50.
1. CC(C)C[C@H](NC(=O)OC1CC2(C1)CN(C(=O)OC(C)(C)C)C2)C(=O)N[C@@H](C[C@H]1CCNC1=O)C(O)S(=O)(=O)O (stereo partly drawn) [Compound 1c]
2. CC(C)C[C@H](NC(=O)OC1CC2(CCN(S(C)(=O)=O)CC2)C1)C(=O)N[C@@H](C[C@H]1CCNC1=O)C(O)S(=O)(=O)O (stereo partly drawn) [Compound 10c]

Resp:
1. 850
2. 240

// input: 3 compounds below; output: IC50 for each
1. CC(C)C[C@H](NC(=O)OC1CC2(C1)CN(C(=O)C(C)C)C2)C(=O)N[C@@H](C[C@H]1CCNC1=O)C(O)S(=O)(=O)O (stereo partly drawn) [Compound 2c]
2. CC(C)C[C@H](NC(=O)OC1CC2(CCN(C(=O)C(C)C)CC2)C1)C(=O)N[C@@H](C[C@H]1CCNC1=O)C(O)S(=O)(=O)O (stereo partly drawn) [Compound 8c]
3. CC(C)C[C@H](NC(=O)OCC1CN(C(=O)Cc2ccccc2)C1)C(=O)N[C@@H](C[C@H]1CCNC1=O)C(O)S(=O)(=O)O (stereo partly drawn) [Compound 15c]

Resp:
[650, 410, 760]

Hi there! I need IC50 for each item below, if you can.
1. CC(C)C[C@H](NC(=O)OC1CC2(CCN(C(=O)Cc3ccccc3)CC2)C1)C(=O)N[C@@H](C[C@H]1CCNC1=O)C(O)S(=O)(=O)O (stereo partly drawn) [Compound 9c]
2. CC(C)C[C@H](NC(=O)OC1CC2(CCN(C(=O)OC(C)(C)C)CC2)C1)C(=O)N[C@@H](C[C@H]1CCNC1=O)C(O)S(=O)(=O)O (stereo partly drawn) [Compound 7c]

Resp:
1: 290; 2: 290
